Where do the numbers come from? From patent US8344008B2.

- target.or.test.system: recombinant human LTA4 hydrolase (rhLTA4H) (Homo sapiens, UniProt P09960)
- assay.method.text: Recombinant Human LTA4 Hydrolase Assay for LTA4 Hydrolase Inhibitor Activity
- condition.info: average of results obtained; LTB4 quantified by enzyme-linked immunoassay
measurement.label: Ki (nM)

Solved entries:
{"compound": "NC(=O)N[C@H]1C[C@H]2CC[C@@H](C1)N2Cc1ccc(Oc2nc3cc(Cl)ccc3s2)cc1 [Example 259]", "value": 58}
{"compound": "CS(=O)(=O)N1C[C@@H]2C[C@H]1CN2Cc1ccc(Oc2nc3ccc(F)cc3s2)cc1 [Example 230]", "value": 397}

A: CS(=O)(=O)N[C@@H]1C[C@H]2CC[C@@H](C1)N2Cc1ccc(Oc2nc3cccc(Cl)c3s2)cc1 [Example 215]
B: CC(=O)N1[C@@H]2CC[C@H]1C[C@H](NCc1ccc(Oc3nc4cccc(Cl)c4s3)cc1)C2 [Example 166]
Lookup: Sorting by Ki in descending order, would A or B appear first? Give the label of your selection.
Found: B
(B: 1900 nM, A: 90 nM)

----------
- target.or.test.system: recombinant human LTA4 hydrolase (rhLTA4H) (Homo sapiens)
- assay.method.text: Recombinant Human LTA4 Hydrolase Assay for LTA4 Hydrolase Inhibitor Activity
- condition.info: average of results obtained; LTB4 quantified by enzyme-linked immunoassay
measurement.label: Ki (nM)

Solved entries:
{"compound": "NCC(=O)N1C2CCC1CN(Cc1ccc(Oc3nc4ccccc4s3)cc1)C2", "value": 116}
{"compound": "CC(=O)N1[C@@H]2CC[C@H]1C[C@@H](NCCc1ccc(Oc3nc4cc(F)ccc4s3)cc1)C2", "value": 85}
{"compound": "CC(=O)N[C@@H]1C[C@H]2CC[C@@H](C1)N2CCc1ccc(Oc2nc3cc(F)ccc3s2)cc1", "value": 64}
{"compound": "O=C(CC(F)(F)F)N1CC2CN(Cc3ccc(Oc4nc5ccccc5s4)cc3)CC2C1 (centres unmarked)", "value": 100}
{"compound": "O=C([C@@H]1CCCO1)N1CC2CN(Cc3ccc(Oc4nc5ccccc5s4)cc3)CC2C1 (some centres unmarked)", "value": 108}

A: O=C(c1ccc[nH]1)N1C[C@@H]2C[C@H]1CN2CCOc1ccc(Oc2nc3ccccc3s2)cc1
B: CS(=O)(=O)N[C@@H]1C[C@H]2CC[C@@H](C1)N2CCOc1ccc(Oc2nc3ccc(Cl)cc3s2)cc1
Lookup: // pick min by Ki: A , B Give the label of your selection.
Found: A
(A: 64 nM, B: 116 nM)

a: NCC(=O)N1C[C@@H]2C[C@H]1CN2CCOc1ccc(Oc2nc3ccccc3s2)cc1
b: CS(=O)(=O)N[C@H]1C[C@H]2CC[C@@H](C1)N2CCOc1ccc(Oc2nc3ccc(Cl)cc3s2)cc1
Lookup: // pick min by Ki: a , b Give the label of your selection.
Found: a
(a: 76 nM, b: 130 nM)

----------
- target.or.test.system: recombinant human LTA4 hydrolase (rhLTA4H) (Homo sapiens, UniProt P09960)
- Sequence (P09960 1-611): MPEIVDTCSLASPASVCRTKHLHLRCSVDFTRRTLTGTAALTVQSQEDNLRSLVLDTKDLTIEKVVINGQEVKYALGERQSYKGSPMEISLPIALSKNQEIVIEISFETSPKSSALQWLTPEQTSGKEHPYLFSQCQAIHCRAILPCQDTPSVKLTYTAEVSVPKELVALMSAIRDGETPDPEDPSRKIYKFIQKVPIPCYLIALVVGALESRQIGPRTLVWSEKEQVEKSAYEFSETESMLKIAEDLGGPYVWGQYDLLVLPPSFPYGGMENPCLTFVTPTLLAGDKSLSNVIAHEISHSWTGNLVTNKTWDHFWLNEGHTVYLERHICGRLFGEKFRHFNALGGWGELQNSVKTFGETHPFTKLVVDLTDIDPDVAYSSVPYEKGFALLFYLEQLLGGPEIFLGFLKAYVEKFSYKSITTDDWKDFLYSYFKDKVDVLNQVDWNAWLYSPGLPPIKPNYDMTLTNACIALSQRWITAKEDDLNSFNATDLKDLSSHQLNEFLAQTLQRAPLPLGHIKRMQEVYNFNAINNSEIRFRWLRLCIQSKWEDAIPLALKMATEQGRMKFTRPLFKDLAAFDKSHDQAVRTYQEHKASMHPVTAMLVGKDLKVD
- assay.method.text: Recombinant Human LTA4 Hydrolase Assay for LTA4 Hydrolase Inhibitor Activity
- condition.info: average of results obtained; LTB4 quantified by enzyme-linked immunoassay
- Procedure: Biological Methods: Recombinant Human LTA4 Hydrolase Assay for LTA4 Hydrolase Inhibitor Activity Compounds of the present invention were tested for LTA4 hydrolase inhibitor activity against recombinant human LTA4 hydrolase (rhLTA4H). Vectors were prepared and used to express rhLTA4H essentially as follows: LTA4 hydrolase encoding DNA was amplified by polymerase chain reaction (PCR) using a human placental cDNA library as a template. […]
pKi: −log10 of the molar value.
measurement.label: pKi

{"compound": "CC(=O)N1C[C@H]2C[C@@H]1CN2CCc1ccc(Oc2nc3cc(Cl)ccc3s2)cc1", "pKi": 6.92}
{"compound": "CS(=O)(=O)N1CC2CCN(Cc3ccc(Oc4nc5ccccc5s4)cc3)C2C1 (stereo not drawn)", "pKi": 6.92}
{"compound": "NC(=O)N1CC2CN(Cc3ccc(Oc4nc5ccccc5s4)cc3F)CC2C1 (stereo not drawn)", "pKi": 6.96}

----------
- target.or.test.system: recombinant human LTA4 hydrolase (rhLTA4H) (Homo sapiens, UniProt P09960)
- assay.method.text: Recombinant Human LTA4 Hydrolase Assay for LTA4 Hydrolase Inhibitor Activity
- condition.info: average of results obtained; LTB4 quantified by enzyme-linked immunoassay
measurement.label: Ki (µM)

Solved entries:
{"compound": "CC(C)(O)C(=O)N1C2CCC1CN(Cc1ccc(Oc3nc4ccccc4s3)cc1)C2", "Ki (µM)": 0.117}
{"compound": "Cc1ccc2nc(Oc3ccc(CN4[C@@H]5CC[C@H]4C[C@H](NS(C)(=O)=O)C5)cc3)sc2c1", "Ki (µM)": 0.065}
{"compound": "NC(=O)N1[C@@H]2CC[C@H]1C[C@@H](NCCOc1ccc(Oc3nc4c(Cl)cccc4s3)cc1)C2", "Ki (µM)": 0.802}

P: CS(=O)(=O)N1CC2CCC(C1)N2CCOc1ccc(Oc2nc3ccc(F)cc3s2)cc1
Q: CC(=O)N1C[C@@H]2C[C@H]1CN2Cc1ccc(Oc2nc3ccccc3s2)cc1
R: CS(=O)(=O)N1[C@@H]2CC[C@H]1C[C@@H](NCCc1ccc(Oc3nc4c(F)cccc4s3)cc1)C2
S: NC(=O)N1C[C@H]2C[C@@H]1CN2Cc1ccc(Oc2nc3c(F)cccc3s2)cc1
T: CC(=O)N1C[C@H]2C[C@@H]1CN2CCOc1ccc(Oc2nc3ccc(Cl)cc3s2)cc1
Lookup: Put the items in sequence by Ki, from largest down. Your task in answering is to list the labels in the requested order.
Found: T, P, R, S, Q
(T: 0.094 µM, P: 0.061 µM, R: 0.021 µM, S: 0.01 µM, Q: 0.006 µM)

----------
- target.or.test.system: recombinant human LTA4 hydrolase (rhLTA4H) (Homo sapiens, UniProt P09960)
- Sequence (P09960 1-611): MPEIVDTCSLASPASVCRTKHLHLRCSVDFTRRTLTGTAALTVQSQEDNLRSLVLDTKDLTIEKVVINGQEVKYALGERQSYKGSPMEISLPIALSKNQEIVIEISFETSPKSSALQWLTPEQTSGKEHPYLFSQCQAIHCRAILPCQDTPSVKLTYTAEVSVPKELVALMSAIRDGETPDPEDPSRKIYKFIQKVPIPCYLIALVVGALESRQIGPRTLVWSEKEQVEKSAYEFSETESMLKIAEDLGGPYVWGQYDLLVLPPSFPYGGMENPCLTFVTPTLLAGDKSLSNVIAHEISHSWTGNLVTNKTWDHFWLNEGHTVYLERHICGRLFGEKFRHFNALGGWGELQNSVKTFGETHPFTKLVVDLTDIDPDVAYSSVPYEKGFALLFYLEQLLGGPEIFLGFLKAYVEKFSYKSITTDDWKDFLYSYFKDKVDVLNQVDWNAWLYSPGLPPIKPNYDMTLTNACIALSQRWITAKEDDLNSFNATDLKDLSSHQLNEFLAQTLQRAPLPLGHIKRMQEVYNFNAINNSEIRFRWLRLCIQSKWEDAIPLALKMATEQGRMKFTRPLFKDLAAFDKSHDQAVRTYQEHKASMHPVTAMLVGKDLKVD
- assay.method.text: Recombinant Human LTA4 Hydrolase Assay for LTA4 Hydrolase Inhibitor Activity
- condition.info: average of results obtained; LTB4 quantified by enzyme-linked immunoassay
measurement.label: Ki (nM)

{"compound": "O=C(c1ccsc1)N1CC2CN(Cc3ccc(Oc4nc5ccccc5s4)cc3)CC2C1 (centres unmarked)", "measurement.label": "Ki", "value": 135}
{"compound": "NS(=O)(=O)N1CC2CN(Cc3ccc(Oc4nc5ccccc5s4)cc3)CC2C1 (centres unmarked)", "measurement.label": "Ki", "value": 72}
{"compound": "CC(C)(C)OC(=O)NCC(=O)N1C[C@H]2C[C@@H]1CN2Cc1ccc(Oc2nc3ccccc3s2)cc1", "measurement.label": "Ki", "value": 88}

P: CS(=O)(=O)N1C[C@H]2C[C@@H]1CN2CCOc1ccc(Oc2nc3ccccc3s2)cc1
Q: CC(=O)N1C[C@@H]2C[C@H]1CN2Cc1ccc(Cc2nc3ccccc3s2)cc1
Lookup: Sorting by Ki in descending order, would P or Q appear first? Give the label of your selection.
Found: Q
(Q: 163 nM, P: 64 nM)
